- Tested on: OPM-2 (Plasma Cell Myeloma)
- EXPERIMENTAL PROTOCOL: Bliss excess, mean over the matrix (fraction); higher = more synergy;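 also: after 72 h of two-drug dosing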
Entries and their Bliss excess
Answer as a number with no unit attached.

COc1cccc(OCCCN)c1-c1cc(Nc2cnc(C#N)cn2)n[nH]1 [Prexasertib] + CCc1c2c(nc3ccc(O)cc13)-c1cc3c(c(=O)n1C2)COC(=O)[C@]3(O)CC [SN-38] (first compound max 1 µM, 7x7, partner max 0.3 µM) : -0.0125
Cc1nc(Nc2ncc(C(=O)Nc3c(C)cccc3Cl)s2)cc(N2CCN(CCO)CC2)n1 [Dasatinib] + CC(=O)Nc1cccc(-n2c(=O)n(C3CC3)c(=O)c3c(Nc4ccc(I)cc4F)n(C)c(=O)c(C)c32)c1 [Trametinib] (first compound max 2 µM, 7x7, partner max 1 µM) : 0.0108
Cn1cnc2c(F)c(Nc3ccc(Br)cc3Cl)c(C(=O)NOCCO)cc21 [Selumetinib] + C[C@@H]1COCCN1C2=NC(=NC(=C2)C3(CC3)[S@](=N)(=O)C)C4=C5C=CNC5=NC=C4 [AZD6738] (first compound max 10 µM, 7x7, partner max 10 µM) : -0.0263
COc1nnc2ccc(N3CCC(c4ccc(OCCN5CCN(C)C(=O)[C@H]5C)cc4)CC3)nn12 [AZD5153] + C[C@@H]1COCCN1C2=NC(=NC(=C2)C3(CC3)[S@](=N)(=O)C)C4=C5C=CNC5=NC=C4 [AZD6738] (first compound max 1 µM, 7x7, partner max 10 µM) : -0.0245
CCN(CCO)CCCOc1ccc2c(Nc3cc(CC(=O)Nc4cccc(F)c4)[nH]n3)ncnc2c1 [AZD2811] + O=C(c1cc(Cc2n[nH]c(=O)c3ccccc23)ccc1F)N1CCN(C(=O)C2CC2)CC1 [Olaparib] (first compound max 1 µM, 7x7, partner max 10 µM) : 0.015

[ask] For the molecule CN(CCO)CC[C@H](CSc1ccccc1)Nc1ccc(S(=O)(=O)NC(=O)c2ccc(N3CCC([C@@H](O)c4ccccc4-c4ccc(Cl)cc4)CC3)cc2)cc1S(=O)(=O)C(F)(F)F [AZD4320] + CN(C)CCCOc1ccc(-c2ccc3ncc4c(c3c2)n(C2CCOCC2)c(=O)n4C)cn1 [AZD0156] (first compound max 1 µM, 7x7, partner max 1 µM) , what Bliss excess is on record?
[reply] 0.0221

[ask] And then N#Cc1cnc(Nc2cc(NC[C@H]3CNCCO3)c(C(F)(F)F)cn2)cn1 [SRA737] + CCc1c2c(nc3ccc(O)cc13)-c1cc3c(c(=O)n1C2)COC(=O)[C@]3(O)CC [SN-38] (first compound max 10 µM, 7x7, partner max 0.3 µM) , what is it?
[reply] 0.0183

====

- System: L-1236 (Hodgkin's Lymphoma)
- EXPERIMENTAL PROTOCOL: Bliss excess, mean over the matrix (fraction); higher = more synergy
Mark not satisfied for Bliss excess values under -0.03, and satisfied for everything at or above.

CCc1c2c(nc3ccc(O)cc13)-c1cc3c(c(=O)n1C2)COC(=O)[C@]3(O)CC [SN-38] + O=C(c1cc(Cc2n[nH]c(=O)c3ccccc23)ccc1F)N1CCN(C(=O)C2CC2)CC1 [Olaparib] (first compound max 0.3 µM, 7x7, partner max 10 µM) : satisfied
CC(=O)Nc1cccc(-n2c(=O)n(C3CC3)c(=O)c3c(Nc4ccc(I)cc4F)n(C)c(=O)c(C)c32)c1 [Trametinib] + Cc1nc(-c2cn3c(n2)-c2ccc(-c4cnn(C(C)(C)C(N)=O)c4)cc2OCC3)n(C(C)C)n1 [Taselisib] (first compound max 1 µM, 7x7, partner max 10 µM) : satisfied
NC1(C(=O)N[C@@H](CCO)c2ccc(Cl)cc2)CCN(c2ncnc3[nH]ccc23)CC1 [Capivasertib] + C[C@@H]1COCCN1C2=NC(=NC(=C2)C3(CC3)[S@](=N)(=O)C)C4=C5C=CNC5=NC=C4 [AZD6738] (first compound max 10 µM, 7x7, partner max 10 µM) : not satisfied
Cc1c2c(nn1C)CSCc1cc(n(C)n1)CSc1cc(c3ccccc3c1)OCCCc1c(C(=O)O)n(C)c3c-2c(Cl)ccc13 [AZD5991] + C=CCn1c(=O)c2cnc(Nc3ccc(N4CCN(C)CC4)cc3)nc2n1-c1cccc(C(C)(C)O)n1 [AZD1775] (first compound max 1 µM, partner max 1 µM) : not satisfied
COc1nnc2ccc(N3CCC(c4ccc(OCCN5CCN(C)C(=O)[C@H]5C)cc4)CC3)nn12 [AZD5153] + CCN(CCO)CCCOc1ccc2c(Nc3cc(CC(=O)Nc4cccc(F)c4)[nH]n3)ncnc2c1 [AZD2811] (first compound max 1 µM, 7x7, partner max 1 µM) : satisfied
Cc1c2c(nn1C)CSCc1cc(n(C)n1)CSc1cc(c3ccccc3c1)OCCCc1c(C(=O)O)n(C)c3c-2c(Cl)ccc13 [AZD5991] + Nc1ccn([C@@H]2O[C@H](CO)[C@@H](O)C2(F)F)c(=O)n1 [Gemcitabine] (first compound max 1 µM, 7x7, partner max 0.3 µM) : not satisfied
CC1(C)CCC(CN2CCN(c3ccc(C(=O)NS(=O)(=O)c4ccc(NCC5CCOCC5)c([N+](=O)[O-])c4)c(Oc4cnc5[nH]ccc5c4)c3)CC2)=C(c2ccc(Cl)cc2)C1 [Venetoclax] + C[C@@H](Nc1cc(F)cc(F)c1)c1cc(C(=O)N(C)C)cc2c(=O)cc(N3CCOCC3)oc12 [AZD8186] (first compound max 1 µM, 7x7, partner max 3 µM) : satisfied
NC1(C(=O)N[C@@H](CCO)c2ccc(Cl)cc2)CCN(c2ncnc3[nH]ccc23)CC1 [Capivasertib] + CC(C)n1c(=O)n(C)c2cnc3cc(F)c(-c4ccc(OCCCN5CCCCC5)nc4)cc3c21 [AZD1390] (first compound max 10 µM, 7x7, partner max 0.3 µM) : satisfied
COc1nnc2ccc(N3CCC(c4ccc(OCCN5CCN(C)C(=O)[C@H]5C)cc4)CC3)nn12 [AZD5153] + Cc1c2c(nn1C)CSCc1cc(n(C)n1)CSc1cc(c3ccccc3c1)OCCCc1c(C(=O)O)n(C)c3c-2c(Cl)ccc13 [AZD5991] (first compound max 1 µM, 7x7, partner max 1 µM) : satisfied
CS(=O)(=O)CCNCc1ccc(-c2ccc3ncnc(Nc4ccc(OCc5cccc(F)c5)c(Cl)c4)c3c2)o1 [Lapatinib] + Cn1cnc2c(F)c(Nc3ccc(Br)cc3Cl)c(C(=O)NOCCO)cc21 [Selumetinib] (first compound max 10 µM, 7x7, partner max 10 µM) : not satisfied

[ask] Decide: Bliss excess of COc1nnc2ccc(N3CCC(c4ccc(OCCN5CCN(C)C(=O)[C@H]5C)cc4)CC3)nn12 [AZD5153] + C[C@@H]1COCCN1C2=NC(=NC(=C2)C3(CC3)[S@](=N)(=O)C)C4=C5C=CNC5=NC=C4 [AZD6738] (first compound max 1 µM, 7x7, partner max 10 µM) >= -0.03?
[reply] satisfied

[ask] And then C[C@@H](Nc1cc(F)cc(F)c1)c1cc(C(=O)N(C)C)cc2c(=O)cc(N3CCOCC3)oc12 [AZD8186] + CC(=O)c1c(C)c2cnc(Nc3ccc(N4CCNCC4)cn3)nc2n(C2CCCC2)c1=O [Palbociclib] (first compound max 10 µM, 7x7, partner max 10 µM) , what is it?
[reply] not satisfied

[ask] And then C=CCn1c(=O)c2cnc(Nc3ccc(N4CCN(C)CC4)cc3)nc2n1-c1cccc(C(C)(C)O)n1 [AZD1775] + CCc1c2c(nc3ccc(O)cc13)-c1cc3c(c(=O)n1C2)COC(=O)[C@]3(O)CC [SN-38] (first compound max 1 µM, partner max 0.3 µM) , what is it?
[reply] not satisfied

[ask] And then O=C(c1cc(Cc2n[nH]c(=O)c3ccccc23)ccc1F)N1CCN(C(=O)C2CC2)CC1 [Olaparib] + Cc1c2c(nn1C)CSCc1cc(n(C)n1)CSc1cc(c3ccccc3c1)OCCCc1c(C(=O)O)n(C)c3c-2c(Cl)ccc13 [AZD5991] (first compound max 10 µM, 7x7, partner max 1 µM) , what is it?
[reply] not satisfied
